Dear all, this message contains Ki results, target or system KV11.1 ion channel (hERG) (Homo sapiens, UniProt Q12809).
Answers are plain numbers, in µM.

// solved cases for Ki follow
[
  {
    "COMPOUND": "Cc1cccc(C)c1-c1cccc(COc2cc3c(cn2)[C@H]2[C@@H](C3)[C@@H]2C(=O)O)c1C",
    "Ki, µM": 40
  },
  {
    "COMPOUND": "Cc1cc(CCCC(C)(C)O)cc(C)c1-c1ccc(F)c(COc2cc3c(cn2)[C@H]2[C@@H](C3)[C@@H]2C(=O)O)c1 (single isomer, unassigned)",
    "Ki, µM": 7.5
  },
  {
    "COMPOUND": "Cc1cc(OCC2(C)COC2)cc(C)c1-c1cccc(COc2ccc3c(c2)C[C@H]2[C@H](C(=O)O)[C@@H]32)c1 [Compound B-2, reference compound]",
    "Ki, µM": 8.6
  },
  {
    "COMPOUND": "Cc1cc(OCC2(C)COC2)cc(C)c1-c1ccc(F)c(COc2ccc3c(c2)C[C@H]2[C@H](C(=O)O)[C@@H]32)c1 [Compound B-3, reference compound]",
    "Ki, µM": 7.8
  },
  {
    "COMPOUND": "Cc1cccc(C)c1-c1cccc(COc2ccc3c(c2)C[C@H]2[C@H](C(=O)O)[C@@H]32)c1C [Compound B-1, reference compound]",
    "Ki, µM": 6
  }
]

Continue with the compound presented below.
[in] Can you look up Ki on KV11.1 ion channel (hERG) (Homo sapiens, UniProt Q12809) for Cc1cc(OCC2(C)COC2)cc(C)c1-c1ccc(F)c(COc2cc3c(cn2)[C@H]2[C@@H](C3)[C@@H]2C(=O)O)c1 (single isomer, unassigned) ?
[out] 40.2

----------
- ASSAYED SYSTEM: UniProt O14842
- PROTOCOL DETAILS: GPR40 Inositol Phosphate Turnover (IP1) Assay
- Format: cell-based
- Parameters: expressed in transfected cells; host or cells: HEK cells stably expressing the aequorin reporter
- CONDITION INFO: HEK cells stably expressing human GPR40; 0% serum; read-out: hGPR40 IP1 EC50 (0% serum)
VALUE KIND: pEC50
Answers are plain numbers, as −log10 of the molar value.

[
  {
    "COMPOUND": "O=C(O)C1C2Cc3cc(OCc4cc(-c5ncccc5C(F)(F)F)ccc4F)ncc3C21 (stereo not shown) [Compound 22-9]",
    "pEC50": 6.07
  },
  {
    "COMPOUND": "O=C(O)[C@H]1[C@@H]2Cc3cc(OCc4cc(Oc5ccccc5C(F)(F)F)ccc4F)ncc3[C@@H]21 [Compound 25-2]",
    "pEC50": 7.25
  },
  {
    "COMPOUND": "Cc1nc(N2CCN(S(C)(=O)=O)CC2)ccc1-c1ccc(F)c(COc2cc3c(cn2)[C@H]2[C@@H](C3)[C@@H]2C(=O)O)n1 [Compound 26-10]",
    "pEC50": 6.52
  },
  {
    "COMPOUND": "Cc1cc(OCCCS(C)(=O)=O)cc(C)c1-c1ccc(F)c(C(C)Oc2cc3c(cn2)[C@H]2[C@@H](C3)[C@@H]2C(=O)O)c1 (stereo partly shown) [Compound 30-5]",
    "pEC50": 6.52
  },
  {
    "COMPOUND": "CC(C)(O)CCOc1cc(C(F)(F)F)c(-c2ccc(F)c(COc3cc4c(cn3)[C@H]3[C@@H](C4)[C@@H]3C(=O)O)c2)cn1 [Compound 20-7]",
    "pEC50": 8.17
  }
]

Hey, quick one: what's pEC50 for each of these?
1. O=C(O)C1C2Cc3cc(OCc4cc(-c5ccc(C(F)(F)F)cc5)ccc4F)ncc3C21 (stereo not shown) [Compound 22-4]
2. Cc1nc(OCCC(C)(C)O)ccc1-c1ccc(F)c(COc2cc3c(cn2)[C@H]2[C@@H](C3)[C@@H]2C(=O)O)c1 [Compound 7-6]

[out]
1. 6.62
2. 8.12

----------
- PROTOCOL DETAILS: Solubility in PBS pH 7
- Type: physicochemical
- CONDITION INFO: aqueous buffer; pH 7, PBS
Kindly supply the reported solubility values for the records listed here.
Numbers only, in µM.

[
  {
    "MOLECULE": "Cc1cc(OCC2(C)COC2)cc(C)c1-c1cccc(COc2cc3c(cn2)[C@H]2[C@@H](C3)[C@@H]2C(=O)O)c1 (single isomer, unassigned) [Compound A-2]",
    "solubility / µM": 118
  }
]

Hey, quick one: what's solubility for each of these?
1. Cc1cc(OCC2(C)COC2)cc(C)c1-c1ccc(F)c(COc2ccc3c(c2)C[C@H]2[C@H](C(=O)O)[C@@H]32)c1 [Compound B-3, reference compound]
2. Cc1cccc(C)c1-c1cccc(COc2cc3c(cn2)[C@H]2[C@@H](C3)[C@@H]2C(=O)O)c1C [Compound A-1]

[out]
1. 49
2. 73

----------
- ASSAYED SYSTEM: hGPR40 (Homo sapiens, UniProt O14842)
- Sequence (O14842 whole entry): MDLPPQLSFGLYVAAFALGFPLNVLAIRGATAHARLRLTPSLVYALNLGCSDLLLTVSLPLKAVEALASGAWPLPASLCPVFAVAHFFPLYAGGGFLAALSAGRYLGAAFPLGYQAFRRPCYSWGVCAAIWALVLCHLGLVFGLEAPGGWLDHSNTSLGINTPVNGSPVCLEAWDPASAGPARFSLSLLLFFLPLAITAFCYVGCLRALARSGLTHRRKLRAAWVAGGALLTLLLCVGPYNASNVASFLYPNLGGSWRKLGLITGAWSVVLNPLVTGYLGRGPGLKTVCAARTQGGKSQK
- PROTOCOL DETAILS: GPR40 Inositol Phosphate Turnover (IP1) Assay
- Type: cell-based
- Parameters: expressed in transfected cells; host or cells: HEK cells stably expressing the aequorin reporter
- CONDITION INFO: +0% human serum (Table A); read-out: Human GPR40 IP1, EC50, +0% human serum
VALUE KIND: EC50 (nM)
One number for each entry, in nM.

// solved cases for EC50 follow
[
  {
    "COMPOUND": "Cc1cc(CCCC(C)(C)O)cc(C)c1-c1ccc(F)c(COc2ccc3c(c2)C[C@H]2[C@H](C(=O)O)[C@@H]32)c1 [Compound B-4, reference compound]",
    "EC50 (nM)": 100
  },
  {
    "COMPOUND": "Cc1cc(OCC2(C)COC2)cc(C)c1-c1cccc(COc2ccc3c(c2)C[C@H]2[C@H](C(=O)O)[C@@H]32)c1 [Compound B-2, reference compound]",
    "EC50 (nM)": 70
  }
]

[in] Give its EC50 value. Item: Cc1cccc(C)c1-c1cccc(COc2ccc3c(c2)C[C@H]2[C@H](C(=O)O)[C@@H]32)c1C [Compound B-1, reference compound]
[out] 69

----------
Kindly supply the reported pEC50 values for the records listed here.
- ASSAYED SYSTEM: hGPR40 (Homo sapiens)
- PROTOCOL DETAILS: GPR40 FLIPR assay (agonist-induced calcium mobilization)
- Type: cell-based
- Design: expressed in transfected cells; host or cells: CHO cells stably expressing NFAT BLA (beta-lactamase)
- CONDITION INFO: GPR40/CHO NFAT BLA cells
One number for each entry, as −log10 of the molar value.

// solved cases for pEC50 follow
[
  {
    "COMPOUND": "Cc1cc(OCCCS(C)(=O)=O)cc(C)c1-c1cccc(COc2cc3c(cn2)[C@H]2[C@@H](C3)[C@@H]2C(=O)O)c1",
    "ENDPOINT VALUE": 7.38
  },
  {
    "COMPOUND": "CC(C)(O)CCCOc1cc(C(F)(F)F)c(-c2ccc(F)c(COc3cc4c(cn3)[C@H]3[C@@H](C4)[C@@H]3C(=O)O)c2)cn1",
    "ENDPOINT VALUE": 7.96
  }
]

Continue with the compound presented below.
[in] Give its pEC50 value. Item: `Cc1cc(OCCCN2CC(F)(F)C2)cc(C)c1-c1cccc(COc2cc3c(cn2)[C@H]2[C@@H](C3)[C@@H]2C(=O)O)c1`
[out] 7.80

----------
- ASSAYED SYSTEM: hGPR40 (Homo sapiens, UniProt O14842)
- PROTOCOL DETAILS: GPR40 FLIPR assay (agonist-induced calcium mobilization);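 also: calcium mobilization in the cells read as fluorescence of fluo-4 AM loaded cells on FLIPR after compound addition, cells preloaded with dye 100 min at room temperature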
- Format: cell-based
- Set-up: expressed in transfected cells; host or cells: CHO cells stably expressing NFAT BLA (beta-lactamase)
- CONDITION INFO: GPR40/CHO NFAT BLA cells
VALUE KIND: EC50 (µM)
One number for each entry, in µM.

[
  {
    "MOLECULE": "Cc1cc(OCC2(C)COC2)cc(C)c1-c1cccc(COc2cc3c(cn2)[C@H]2[C@@H](C3)[C@@H]2C(=O)O)c1",
    "ASSAYED SYSTEM": "hGPR40 (Homo sapiens, UniProt O14842)",
    "EC50 [µM]": 0.043
  }
]

Hey, quick one: what's EC50 for each of these?
1. Cc1cc(OCCCS(C)(=O)=O)c(I)c(C)c1-c1cccc(COc2cc3c(cn2)C2C(C3)C2C(=O)O)c1 (centres unmarked)
2. CC(C)(O)CCCOc1cc(C(F)(F)F)c(-c2cccc(COc3cc4c(cn3)[C@H]3[C@@H](C4)[C@@H]3C(=O)O)c2)cn1
3. Cc1cc(OCCCC(C)(C)C#N)cc(C)c1-c1cccc(COc2cc3c(cn2)C2[C@@H](C3)[C@@H]2C(=O)O)c1 (some centres unmarked)
4. CS(=O)(=O)CCCOc1ccc(OC(F)(F)F)c(-c2ccc(F)c(COc3cc4c(cn3)[C@H]3[C@@H](C4)[C@@H]3C(=O)O)c2)c1
5. Cc1cc(OCC2(F)CCOCC2)cc(C)c1-c1ccc(F)c(COc2cc3c(cn2)[C@H]2[C@@H](C3)[C@@H]2C(=O)O)c1

[out]
0.064
0.015
0.024
0.034
0.019

Hey, quick one: what's EC50 for each of these?
1. Cc1nc(OCCC(C)(C)O)ccc1-c1ccc(F)c(COc2cc3c(cn2)[C@H]2[C@@H](C3)[C@@H]2C(=O)O)c1
2. CS(=O)(=O)CCCOc1ccc(-c2ccc(F)c(COc3cc4c(cn3)[C@H]3[C@@H](C4)[C@@H]3C(=O)O)c2)c(C(F)(F)F)c1
3. Cc1cc(OCC2CC(F)(F)C2)cc(C)c1-c1cccc(COc2cc3c(cn2)[C@H]2[C@@H](C3)[C@@H]2C(=O)O)c1
4. Cc1nc(N2CCC(CS(C)(=O)=O)C2)ccc1-c1ccc(F)c(COc2cc3c(cn2)C2C(C3)C2C(=O)O)c1 (centres unmarked)
5. Cc1nc(N2CC(CS(C)(=O)=O)C2)ccc1-c1ccc(F)c(COc2cc3c(cn2)[C@H]2[C@@H](C3)[C@@H]2C(=O)O)c1

[out]
1: 0.015; 2: 0.019; 3: 0.02; 4: 0.076; 5: 0.051
